Assay: Stability in buffer at various pH values
Format: physicochemical
Conditions: pH 7.4, 37° C., 24 h
Structures can show the parent of a compound that is named as a salt.
measurementKind: % test substance after 24 h [F(t = 24 h) × 100/F(t = 0 h)] (%)

Sample records with % test substance after 24 h [F(t = 24 h) × 100/F(t = 0 h)]:
- molecule: "C[C@H](N)C(=O)OC[C@H](COc1ccc(-c2c(C#N)c(N)nc(SCc3coc(-c4ccc(Cl)cc4)n3)c2C#N)cc1)OC(=O)[C@H](C)N"
  measuredValue: 53
- molecule: "N#Cc1c(N)nc(SCc2coc(-c3ccc(Cl)cc3)n2)c(C#N)c1-c1ccc(OC[C@@H](COC(=O)CCCN)OC(=O)CCCN)cc1"
  measuredValue: 74
- molecule: "C[C@@H](O)[C@H](N)C(=O)OC[C@H](COc1ccc(-c2c(C#N)c(N)nc(SCc3coc(-c4ccc(Cl)cc4)n3)c2C#N)cc1)OC(=O)[C@@H](N)[C@@H](C)O [Example 18, (trifluoroacetic acid) salt]"
  measuredValue: 72

P = N#Cc1c(N)nc(SCc2coc(-c3ccc(Cl)cc3)n2)c(C#N)c1-c1ccc(OC[C@@H](COC(=O)CN)OC(=O)CN)cc1 [Example 3, dihydrochloride]
Q = C[C@H](N)C(=O)OC[C@@H](COc1ccc(-c2c(C#N)c(N)nc(SCc3coc(-c4ccc(Cl)cc4)n3)c2C#N)cc1)OC(=O)[C@H](C)N
Response body: label of entry with the larger % test substance after 24 h [F(t = 24 h) × 100/F(t = 0 h)]; valid values P , Q . Reply briefly: the label of your chosen item.
P

====

Assay: Stability in buffer at various pH values
Assay type: physicochemical
Details: pH 7.4, 37° C., 4 h
Where a name gives a salt, the structure may show the parent alone.
measurementKind: % test substance after 4 h [F(t = 4 h) × 100/F(t = 0 h)] (%)

- compound: "C[C@H](N)C(=O)OC[C@H](COc1ccc(-c2c(C#N)c(N)nc(SCc3coc(-c4ccc(Cl)cc4)n3)c2C#N)cc1)OC(=O)[C@H](C)N [Example 1]"
  measuredValue: 90
- compound: "C[C@H](N)C(=O)OC[C@@H](COc1ccc(-c2c(C#N)c(N)nc(SCc3coc(-c4ccc(Cl)cc4)n3)c2C#N)cc1)OC(=O)[C@H](C)N [Example 11]"
  measuredValue: 84
- compound: "N#Cc1c(N)nc(SCc2coc(-c3ccc(Cl)cc3)n2)c(C#N)c1-c1ccc(OC[C@@H](COC(=O)CN)OC(=O)CN)cc1 [Example 3, dihydrochloride]"
  measuredValue: 93
- compound: "C[C@@H](O)[C@H](N)C(=O)OC[C@H](COc1ccc(-c2c(C#N)c(N)nc(SCc3coc(-c4ccc(Cl)cc4)n3)c2C#N)cc1)OC(=O)[C@@H](N)[C@@H](C)O [Example 18, (trifluoroacetic acid) salt]"
  measuredValue: 95
- compound: "N#Cc1c(N)nc(SCc2coc(-c3ccc(Cl)cc3)n2)c(C#N)c1-c1ccc(OC[C@@H](COC(=O)CCCN)OC(=O)CCCN)cc1 [Example 14]"
  measuredValue: 93

====

Test: Determination of the solubility (suspension shaken 24 h at room temperature, HPLC of supernatant)
Format: physicochemical
Details: 0.1 M hydrochloric acid, simulated gastric fluid, thermodynamic from solid
measurementKind: solubility at 24 h

Fill in the blank: the reported solubility at 24 h of N#Cc1c(N)nc(SCc2coc(-c3ccc(Cl)cc3)n2)c(C#N)c1-c1ccc(OC[C@H](O)CO)cc1 [Example 8A, reference compound] is ____.
< 0.1 µg/mL

====

Assay: Stability in buffer at various pH values
Assay type: physicochemical
Conditions: pH 4, 37° C., 4 h
Experimental: 0.3 mg of the test substance is weighed into a 2 ml HPLC vial and 0.5 ml of acetonitrile or acetonitrile/DMSO (9:1) is added. The substance is dissolved by putting the sample vessel in an ultrasonic bath for about 10 seconds. […] 5 μl portions of the test solution are analyzed by HPLC for their content of unchanged test substance, and of basic mother substance of the formula (A) formed, every hour over a period of 24 hours at 37° C. […]
Counter-ions that a name gives are not always drawn.
measurementKind: % test substance after 4 h [F(t = 4 h) × 100/F(t = 0 h)] (%)

- compound: "N#Cc1c(N)nc(SCc2coc(-c3ccc(Cl)cc3)n2)c(C#N)c1-c1ccc(OC[C@@H](COC(=O)CN)OC(=O)CN)cc1 [Example 3, dihydrochloride]"
  measuredValue: 99
- compound: "N#Cc1c(N)nc(SCc2coc(-c3ccc(Cl)cc3)n2)c(C#N)c1-c1ccc(OC[C@@H](COC(=O)CCCN)OC(=O)CCCN)cc1 [Example 14]"
  measuredValue: 97
- compound: "C[C@H](N)C(=O)OC[C@@H](COc1ccc(-c2c(C#N)c(N)nc(SCc3coc(-c4ccc(Cl)cc4)n3)c2C#N)cc1)OC(=O)[C@H](C)N [Example 11]"
  measuredValue: 96
- compound: "C[C@H](N)C(=O)OC[C@H](COc1ccc(-c2c(C#N)c(N)nc(SCc3coc(-c4ccc(Cl)cc4)n3)c2C#N)cc1)OC(=O)[C@H](C)N [Example 1]"
  measuredValue: 99
- compound: "C[C@@H](O)[C@H](N)C(=O)OC[C@H](COc1ccc(-c2c(C#N)c(N)nc(SCc3coc(-c4ccc(Cl)cc4)n3)c2C#N)cc1)OC(=O)[C@@H](N)[C@@H](C)O [Example 18, (trifluoroacetic acid) salt]"
  measuredValue: 100

====

Experiment: Determination of the solubility (suspension shaken 24 h at room temperature, HPLC of supernatant)
Assay type: physicochemical
Settings: saline or isotonic, thermodynamic from solid, 5% strength aqueous dextrose solution
Where a name gives a salt, the structure may show the parent alone.
measurementKind: solubility at 24 h (µg/mL)

Below are worked cases with known answers.
- compound: "N#Cc1c(N)nc(SCc2coc(-c3ccc(Cl)cc3)n2)c(C#N)c1-c1ccc(OC[C@@H](COC(=O)[C@@H](N)CCCCN)OC(=O)[C@@H](N)CCCCN)cc1"
  unitAbbreviation: "µg/mL"
  measuredValue: 710
- compound: "C[C@@H](O)[C@H](N)C(=O)OC[C@H](COc1ccc(-c2c(C#N)c(N)nc(SCc3coc(-c4ccc(Cl)cc4)n3)c2C#N)cc1)OC(=O)[C@@H](N)[C@@H](C)O [Example 18, (trifluoroacetic acid) salt]"
  unitAbbreviation: "µg/mL"
  measuredValue: 240
- compound: "N#Cc1c(N)nc(SCc2coc(-c3ccc(Cl)cc3)n2)c(C#N)c1-c1ccc(OC[C@@H](COC(=O)CCCCCN)OC(=O)CCCCCN)cc1 [Example 15, dihydrochloride]"
  unitAbbreviation: "µg/mL"
  measuredValue: 830
- compound: "CC(C)[C@H](N)C(=O)OC[C@H](COc1ccc(-c2c(C#N)c(N)nc(SCc3coc(-c4ccc(Cl)cc4)n3)c2C#N)cc1)OC(=O)[C@@H](N)C(C)C [Example 16, (trifluoroacetic acid) salt]"
  unitAbbreviation: "µg/mL"
  measuredValue: 250

I = CC(C)C[C@H](N)C(=O)OC[C@H](COc1ccc(-c2c(C#N)c(N)nc(SCc3coc(-c4ccc(Cl)cc4)n3)c2C#N)cc1)OC(=O)[C@@H](N)CC(C)C [Example 17, (trifluoroacetic acid) salt]
II = N#Cc1c(N)nc(SCc2coc(-c3ccc(Cl)cc3)n2)c(C#N)c1-c1ccc(OC[C@@H](COC(=O)CCCN)OC(=O)CCCN)cc1
Short answer wanted: higher solubility at 24 h, I or II ? Indicate your choice by writing its label.
II
(II: 540 µg/mL, I: 330 µg/mL)

====

Test: Determination of the solubility (suspension shaken 24 h at room temperature, HPLC of supernatant)
Type: physicochemical
Details: aqueous buffer, thermodynamic from solid, dilute hydrochloric acid (pH 4)
measurementKind: solubility at 24 h (mg/mL)
Give the value, in units of mg/mL, as a plain number.

// returns reported solubility at 24 h for input C[C@@H](N)C(=O)OC[C@H](COc1ccc(-c2c(C#N)c(N)nc(SCc3coc(-c4ccc(Cl)cc4)n3)c2C#N)cc1)OC(=O)[C@@H](C)N
0.535

====

Assay: Determination of the solubility (suspension shaken 24 h at room temperature, HPLC of supernatant)
Format: physicochemical
Settings: saline or isotonic, thermodynamic from solid, 5% strength aqueous dextrose solution
# Lookup of reported solubility at 24 h keyed by entry

solubility at 24 h for N#Cc1c(N)nc(SCc2coc(-c3ccc(Cl)cc3)n2)c(C#N)c1-c1ccc(OC[C@H](O)CO)cc1 [Example 8A, reference compound] ?
< 1.2 µg/mL

What does the data say about its solubility at 24 h? Entry: CC(C)[C@H](N)C(=O)OC[C@@H](COc1ccc(-c2c(C#N)c(N)nc(SCc3coc(-c4ccc(Cl)cc4)n3)c2C#N)cc1)OC(=O)[C@@H](N)C(C)C
> 500 µg/mL

Dear colleague, I am looking for the recorded solubility at 24 h of the following molecule: C[C@H](N)C(=O)OC[C@H](COc1ccc(-c2c(C#N)c(N)nc(SCc3coc(-c4ccc(Cl)cc4)n3)c2C#N)cc1)OC(=O)[C@H](C)N
> 500 µg/mL
